Biological target: UniProtKB P40818
Test: Ubiquitin-specific protease 8 inhibitors, concentration-effect, biochemical, validation of initial actives (AID 1645862);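 note: potency reflects inhibition of USP8 cleavage of a ubiquitin rhodamine substrate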
Conditions: recombinant USP8 deubiquitinase activity assay
The source made the active and inactive calls. The rule behind the calls is not given here.
Select the matching outcome among 1.0 = active, 0.0 = inactive

Query: # fetch the recorded call for O=C(Cn1c(=O)c2cccn2c2ccccc21)NCc1ccc(F)cc1 here
Result: 0.0

Query: # fetch the recorded call for CCOc1ncccc1C(=O)Nc1ccnn1Cc1ccccc1 here
Result: 0.0

Query: # fetch the recorded call for NS(=O)(=O)c1cccc(NS(=O)(=O)c2ccc(/C=C/C(=O)OCC(=O)c3ccc(Br)cc3)cc2)c1 here
Result: 0.0

Query: # fetch the recorded call for CC(=O)c1cc(-c2ccc(F)cc2)n(CC(=O)Nc2cccc(C)c2C)c1C here
Result: 0.0

Query: # fetch the recorded call for Cn1cc(NC(=O)Nc2cccc(C(F)(F)F)c2)c2ccccc2c1=O here
Result: 1.0

Query: # fetch the recorded call for COc1ccccc1/C=C/C(=O)NC(Cc1ccccc1)c1nc2ccccc2[nH]1 (centres undefined) here
Result: 0.0

Query: # fetch the recorded call for CCOC(=O)c1ccc(NC(=O)Cn2c(=O)n(-c3ccc(CC(=O)NCc4ccco4)cc3)c(=O)c3ccccc32)cc1 here
Result: 0.0

Query: # fetch the recorded call for O=C(c1ccccc1CN1CCOCC1)N1CCOCC2(C1)CN(c1ccc(F)cc1)C(=O)O2 (centres undefined) here
Result: 0.0

Query: # fetch the recorded call for COc1ccc(/C=C/C(=O)Nc2ccc3nc(N4CCN(c5ncccn5)CC4)cc(C)c3c2)cc1 here
Result: 0.0

---

Target: Ubiquitin carboxyl-terminal hydrolase 8 (Homo sapiens) (UniProt P40818)
Sequence (P40818 whole entry, looked up): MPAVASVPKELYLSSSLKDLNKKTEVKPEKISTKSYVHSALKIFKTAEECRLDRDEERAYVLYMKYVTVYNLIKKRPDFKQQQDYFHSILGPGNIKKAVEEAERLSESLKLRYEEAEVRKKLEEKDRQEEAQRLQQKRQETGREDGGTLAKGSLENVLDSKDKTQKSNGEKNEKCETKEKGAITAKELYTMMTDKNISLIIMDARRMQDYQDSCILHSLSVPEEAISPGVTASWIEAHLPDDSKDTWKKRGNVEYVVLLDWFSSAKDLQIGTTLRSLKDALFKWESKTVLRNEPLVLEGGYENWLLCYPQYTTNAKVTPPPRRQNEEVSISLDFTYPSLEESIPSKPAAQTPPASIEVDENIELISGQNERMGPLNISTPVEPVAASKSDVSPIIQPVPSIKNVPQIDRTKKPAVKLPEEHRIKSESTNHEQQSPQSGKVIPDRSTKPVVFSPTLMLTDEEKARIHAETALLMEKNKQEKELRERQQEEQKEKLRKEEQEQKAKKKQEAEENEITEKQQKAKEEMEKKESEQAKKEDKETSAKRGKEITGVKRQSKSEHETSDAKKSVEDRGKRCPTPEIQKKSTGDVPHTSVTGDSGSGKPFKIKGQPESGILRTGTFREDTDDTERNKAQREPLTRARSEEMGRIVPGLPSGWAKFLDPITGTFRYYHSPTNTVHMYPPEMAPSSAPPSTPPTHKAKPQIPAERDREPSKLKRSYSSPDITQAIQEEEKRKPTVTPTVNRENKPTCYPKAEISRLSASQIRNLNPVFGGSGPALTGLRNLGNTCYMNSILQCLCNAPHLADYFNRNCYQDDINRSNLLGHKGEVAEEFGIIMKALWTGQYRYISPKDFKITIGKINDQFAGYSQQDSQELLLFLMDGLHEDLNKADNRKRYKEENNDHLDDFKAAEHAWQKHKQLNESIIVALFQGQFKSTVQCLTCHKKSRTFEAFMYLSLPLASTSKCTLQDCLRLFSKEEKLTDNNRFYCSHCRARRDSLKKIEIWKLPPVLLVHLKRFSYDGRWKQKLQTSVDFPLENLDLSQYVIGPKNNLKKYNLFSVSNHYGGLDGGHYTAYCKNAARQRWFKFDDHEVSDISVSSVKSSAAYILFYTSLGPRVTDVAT
Assay: Ubiquitin-specific protease 8 inhibitors, concentration-effect, biochemical, validation of initial actives (AID 1645862);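 note: potency reflects inhibition of USP8 cleavage of a ubiquitin rhodamine substrate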
Settings: recombinant USP8 deubiquitinase activity assay
The source made the active and inactive calls. The rule behind the calls is not given here.
Select the matching outcome among y = active, n = inactive

Query: # fetch the recorded call for c1cncc(-c2cnc3sc(NC4CCCCC4)nn23)c1 here
Result: n

Query: # fetch the recorded call for Cc1cc(C)c2nc3c(cc2c1)CN(Cc1ccco1)C(=O)O3 here
Result: n

Query: # fetch the recorded call for Cc1cc(Cl)ccc1NC(=O)c1cc(-c2cccnc2)n[nH]1 here
Result: n

Query: # fetch the recorded call for O=C1Cc2ccccc2C(=O)N1c1ccc2c(c1)OCO2 here
Result: y

Query: # fetch the recorded call for O=C(CC1C(=O)N(C2CCCC2)c2nc3ccccc3n21)Nc1ccccc1 (stereo unspecified) here
Result: n

Query: # fetch the recorded call for O=C(Cn1cnc(-c2ccccc2)cc1=O)Nc1ccc(Oc2ccccc2)cc1 here
Result: n

Query: # fetch the recorded call for Cc1ccc(NCc2cc3c(-c4cccc(F)c4)nn(-c4ccccc4)c3[nH]c2=O)cc1C here
Result: n

Query: # fetch the recorded call for COc1ccc(C2NC(=O)NC(C)=C2C(=O)OCC2CCCCC2)cc1OC (stereo unspecified) here
Result: n

Query: # fetch the recorded call for Nc1c(-c2ccc(Cl)cc2)cnc2cc(-c3ccc(Cl)c(Cl)c3)nn12 here
Result: n

Query: # fetch the recorded call for COc1ccc(CNC(=O)C(C)n2nc(-c3ccco3)c(-c3cc(C)no3)cc2=O)cc1 (stereo unspecified) here
Result: n

Query: # fetch the recorded call for Cc1ccc(C(=O)Nc2ccc3c(c2)Sc2ncccc2C(=O)N3C(C)C)cc1C here
Result: n

Query: # fetch the recorded call for CSc1cccc(NC(=O)c2cc(-c3cccnc3)n[nH]2)c1 here
Result: n

Query: # fetch the recorded call for CC(C)CC(NC(=O)c1ccc(Cl)cc1Cl)c1nc2ccccc2[nH]1 (stereo unspecified) here
Result: n

Query: # fetch the recorded call for Cc1cccc(OCC2=NN3C(=N)/C(=C\c4cc(C)n(-c5cccc(F)c5)c4C)C(=O)N=C3S2)c1 here
Result: n

Query: # fetch the recorded call for COC(=O)c1ccccc1NC(=O)Cn1c(=O)n(CCCC(=O)NCc2ccco2)c(=O)c2ccccc21 here
Result: n

Query: # fetch the recorded call for Cc1c(NC(=O)/C=C/c2cccc(Cl)c2Cl)cccc1-n1cnnn1 here
Result: n

Query: # fetch the recorded call for N#Cc1cccc(NC(=O)Nc2cccn(Cc3ccc(F)cc3)c2=O)c1 here
Result: n

Query: # fetch the recorded call for O=C(c1cnc2[nH][nH]c(=O)c2c1)c1cc(Cl)cc(Cl)c1O here
Result: y

Query: # fetch the recorded call for Cc1ccc2c(c1)N=C(c1ccc([N+](=O)[O-])cc1)CO2 here
Result: n

Query: # fetch the recorded call for Cc1ccc(CS(=O)(=O)c2cn(CC(=O)NCCc3ccccc3)c3ccccc23)cc1 here
Result: n

Query: # fetch the recorded call for Cc1nc(N2CCN(c3ccc(Cl)cc3)CC2)c2oc3ccccc3c2n1 here
Result: n

---

Molecular target: Ubiquitin carboxyl-terminal hydrolase 8 (Homo sapiens) (UniProt P40818)
Test: Ubiquitin-specific protease 8 inhibitors, concentration-effect, biochemical, validation of initial actives (AID 1645862);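 note: potency reflects inhibition of USP8 cleavage of a ubiquitin rhodamine substrate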
Conditions: recombinant USP8 deubiquitinase activity assay
Activity calls are given as the source filed them. The rule behind the calls is not given here. Bridge positions count the residues as written; N and C are the ends. Peptide text beside a SMILES is read from it. * marks the point of attachment. ξ: configuration not given here. Pentadecanoyl(3ξ-OH,15-Gua) = N=C(N)NCCCCCCCCCCCCC(O)CC(=O)*
measured property: IC50

Query: Look up IC50: Cc1ccccc1NC(=O)CSC1=NC2(CCCCC2)Nc2ccccc21
Result: > 40 µM (inactive)

Query: Look up IC50: Cc1ccc(S(=O)(=O)Nc2cccc(Cl)c2)cc1NC(=O)CCC(=O)c1ccc(Cl)cc1
Result: > 40 µM (inactive)

Query: Look up IC50: Cc1ccc(NC(=O)Cc2nnc3c(-c4nc(C5CC5)no4)cccn23)cc1F
Result: 30.3 µM

Query: Look up IC50: CCN(c1ccc(NC(=O)CSc2nnc(-c3ccccc3)n2-c2ccc(OC)c(OC)c2)cc1)C(C)C
Result: > 40 µM (inactive)

Query: Look up IC50: O=C(CCCCCn1c(=O)c2sccc2n(CC(=O)c2ccc(F)cc2)c1=O)NCc1ccccc1Cl
Result: > 40 µM (inactive)

Query: Look up IC50: CCOc1cccc(-c2noc(-c3nn(-c4ccccc4)ccc3=O)n2)c1
Result: > 40 µM (inactive)

Query: Look up IC50: O=C(Nc1cccc(-c2nc3cnccc3o2)c1)c1ccc(Br)o1
Result: > 40 µM (inactive)

Query: Look up IC50: O=C(CCn1c(=O)c2ccccc2n(CC(=O)OCc2ccccc2)c1=O)NCc1ccc2c(c1)OCO2
Result: > 40 µM (inactive)

Query: Look up IC50: COc1ccc(CCNC(=O)CSc2cn(CCNC(=O)c3ccccc3C)c3ccccc23)cc1OC
Result: > 40 µM (inactive)

Query: Look up IC50: COC(=O)c1ccc2c(=O)n(-c3ccc(C)c(F)c3)c(N3CCC(C(N)=O)CC3)nc2c1
Result: > 40 µM (inactive)

Query: Look up IC50: Cc1ccc(C(=O)O)cc1NC(=O)C(Sc1cccc(NC(=O)c2cccc(Cl)c2)c1)c1ccccc1 (configuration not stated)
Result: > 40 µM (inactive)

Query: Look up IC50: CCOc1ccc2c(c1)c(=O)c(C(=O)c1ccccc1)cn2CC(=O)Nc1ccc2c(c1)OCCO2
Result: > 40 µM (inactive)

Query: Look up IC50: COc1ccc(OC)c(NC(=O)Cn2c(=O)n(C3CCCCC3)c(=O)c3ccccc32)c1
Result: > 40 µM (inactive)

Query: Look up IC50: Cn1nc(C(=O)N2CCC(c3ccccc3)C2)c2c1-c1ccsc1CC2 (configuration not stated)
Result: 38.4 µM

Query: Look up IC50: CC(C)CCCCCCCCCCC(=O)N(C)[C@H](CO)C(=O)N[C@H](C)C(=O)NCC(=O)N(C)C1C(=O)N[C@@H](C)C(=O)NC(C(=O)O)Cc2ccc(O)c(c2)-c2cc1ccc2O (some centres not stated)
Result: > 40 µM (inactive)

Query: Look up IC50: O=C(NCCc1nc2ccccc2n1CCOc1ccccc1Cl)C1CCCCC1
Result: > 40 µM (inactive)

Query: Look up IC50: CN(C)S(=O)(=O)c1ccc(NC(=O)CN2CCCc3ccccc32)cc1
Result: > 40 µM (inactive)

Query: Look up IC50: COc1ccc(Cl)cc1NC(=O)c1cc(-c2ccccn2)n[nH]1
Result: 10.5 µM

Query: Look up IC50: COc1ccc(OC)c(NC2=NS(=O)(=O)C(c3cccc(Br)c3)=C2C)c1
Result: > 40 µM (inactive)

Query: Look up IC50: Cc1cc(OCC(=O)Nc2ccccc2C(=O)Nc2ccccc2)ccc1Cl
Result: > 40 µM (inactive)

Query: Look up IC50: CC(C)(C)c1ccc(C2CC(=O)C3=C(C2)Nc2ccccc2N(C(=O)CCC(=O)O)C3c2cccc([N+](=O)[O-])c2)cc1 (configuration not stated)
Result: > 40 µM (inactive)

Query: Look up IC50: COc1ccc(CNC(=O)C2CCCN(S(=O)(=O)Cc3ccc(Cl)cc3)C2)cc1 (configuration not stated)
Result: > 40 µM (inactive)

Query: Look up IC50: O=C(Nc1ccc(F)cc1)Nc1ccccc1OCc1cc(=O)n2ccccc2n1
Result: > 40 µM (inactive)

Query: Look up IC50: COc1ccc(N(CC(=O)NC2CCCCC2)C(=O)c2ccc(-c3ccccc3)[nH]2)cc1OC
Result: > 40 µM (inactive)

Query: Look up IC50: O=C(Nc1nc(-c2ccccc2)ns1)c1ccc2ncsc2c1
Result: > 40 µM (inactive)

Query: Look up IC50: O=C(CCSc1nnnn1-c1ccccc1)Nc1cc(C(F)(F)F)ccc1Cl
Result: > 40 µM (inactive)

Query: Look up IC50: CCOc1ccc(-c2noc(-c3nn(-c4cccc(OC)c4)ccc3=O)n2)cc1
Result: 34.1 µM

Query: Look up IC50: FC(F)(F)c1ccc(Nc2nnnc3ccccc23)cc1
Result: > 40 µM (inactive)

Query: Look up IC50: C/C=C/C=C/[C@@H]1Cc2cc(O)cc(O)c2O1
Result: 20.2 µM

Query: Look up IC50: COc1ccc(C)cc1NC(=O)CN1C(=O)C2CCCC2=Nc2ccccc21 (configuration not stated)
Result: > 40 µM (inactive)

Query: Look up IC50: CCc1ccc(NC(=O)Cc2nnc3cc(-c4nc(C)no4)ccn23)cc1
Result: 19.6 µM

Query: Look up IC50: Cc1cc(Nc2cccc(Cl)c2)n2nc(-c3cccnc3)nc2n1
Result: > 40 µM (inactive)

Query: Look up IC50: O=C(COc1ccc(C2CCCCC2)cc1)Nc1ccc(-c2nn3cnnc3s2)cc1
Result: > 40 µM (inactive)

Query: Look up IC50: CCn1cc2c(n1)c(=O)n(Cc1ccc(C)cc1)c(=O)n2CC(=O)Nc1ccc(F)cc1
Result: > 40 µM (inactive)

Query: Look up IC50: CC1NC(=O)C(CC(N)=O)NC(=O)C(C(C)O)NC(=O)C(Cc2ccc(O)cc2)NC(=O)C(C(C)C)NC(=O)C(NC(=O)CC(O)CCCCCCCCCCCCN=C(N)N)C(C)OC1=O (configuration not stated) ({Pentadecanoyl(3ξ-OH,15-Gua)}-TVYTNA; ester 1-C; configuration not given here)
Result: > 40 µM (inactive)

Query: Look up IC50: Cc1ccc(-c2nn(C(C)(C)C)c3ncnc(NS(=O)(=O)c4ccc(Cl)cc4)c23)cc1
Result: > 40 µM (inactive)

Query: Look up IC50: Cc1nn(-c2nc3ccccc3o2)c2c1C(c1cccc([N+](=O)[O-])c1)CC(=O)N2 (configuration not stated)
Result: > 40 µM (inactive)
